The origin of these recorded values is patent US20100021987.

- tested-on: 6xHis-ySmt3-eGFP
test-readout: activity level (grade)

Arabidopsis thalania ULP1c (AtULP1c) SUMO protease catalytic domain (protein) MVVEEACELPEGLPEDIYYPSSDQSDGRDLVQVSLKDLKCLSPGEYLTSPVINFYIRYVQHHVFSADKTAANCHFFNTFFYKKLTEAVSYKGNDRDAYFVKFRRWWKGFDLFCKSYIFIPIHEDLHWSLVIICIPDKEDESGLTIIHLDSLGLHPRNLIFNNVKRFLREEWNYLNQDAPLDLPISAKVWRDLPNMINEAEVQVPQQKNDFDCGLFLLFFIRRFIEEAPQRLTLQDLKMIHKKWFKPEEASALRIKIWNILVDLFRKGNQTDLEHHHHHH    -
Saccharomyces cerevisiae Ulp1 SUMO protease catalytic domain (protein) MGLVPELNEKDDDQVQKALASRENTQLMNRDNIEITVRDFKTLAPRRWLNDTIIEFFMKYIEKSTPNTVAFNSFFYTNLSERGYQGVRRWMKRKKTQIDKLDKIFTPINLNQSHWALGIIDLKKKTIGYVDSLSNGPNAMSFAILTDLQKYVMEESKHTIGEDFDLIHLDCPQQPNGYDCGIYVCMNTLYGSADAPLDFDYKDAIRMRRFIAHLILTDALKLEHHHHHH    ++++
human SENP1 (hSENP1) SUMO protease catalytic domain (protein) MASFPEITEEMEKEIKNVFRNGNQDEVLSEAFRLTITRKDIQTLNHLNWLNDEIINFYMNMLMERSKEKGLPSVHAFNTFFFTKLKTAGYQAVKRWTKKVDVFSVDILLVPIHLGVHWCLAVVDFRKKNITYYDSMGGINNEACRILLQYLKQESIDKKRKEFDTNGWQLFSKKSQIPQQMNGSDCGMFACKYADCITKDRPINFTQQHMPYFRKRMVWEILHRKLLEHHHHHH    ++
human SENP2 (hSENP2) SUMO protease catalytic domain (protein) MASLLELTEDMEKEISNALGHGPQDEILSSAFKLRITRGDIQTLKNYHWLNDEVINFYMNLLVERNKKQGYPALHVFSTFFYPKLKSGGYQAVKRWTKGVNLFEQEIILVPIHRKVHWSLVVIDLRKKCLKYLDSMGQKGHRICEILLQYLQDESKTKRNSDLNLLEWTHHSMKPHEIPQQLNGSDCGMFTCKYADYISRDKPITFTQHQMPLFRKKMVWEILHQQLLAAALEHHHHHH    +++++
